# Experiment: Half life in mouse xenografted with human MIAPaCa2 cells at 9.1 mg/kg, iv administered as single dose
# Format: ADME, organism-based
# Test Parameters: in vivo
Property: half-life

Problem: What value of measured half-life is listed for O=C1c2ccc3c4c(c(NCCN5CCCC5)cc(c24)C(=O)N1CCCN1CCOCC1)C(=O)N(CCCN1CCOCC1)C3=O ?
Solution: 33 h

* * *

# Experiment: Apparent volume of distribution in mouse xenografted with human MIAPaCa2 cells at 0.96 mg/kg, iv administered as single dose
# Format: ADME, organism-based
# Test Parameters: in vivo, read-out: Vz
Property: Vd (L/kg)
The figure you give is taken to be in L/kg; do not add the unit.

Problem: What value of measured Vd is listed for O=C1c2cc(-c3ccc(CN4CCCC4)cc3)c3c4c(cc(NCCN5CCCC5)c(c24)C(=O)N1CCCN1CCOCC1)C(=O)N(CCCN1CCOCC1)C3=O ?
Solution: 6.9
